Each recorded value in this set is attributed to ChEMBL document CHEMBL1759876.

Test system: Hairpin ribozyme RNA
Assay: Binding affinity to double helical RNA hairpin HRP2 in sodium acetate buffer at pH 5.5
Format: nucleic-acid assay
metric-name: Ka (×10⁶ /M)
Dear colleague, please return just the value in ×10⁶ /M, with no unit written.

molecule | display-unit | value-measured
Cc1cn(CC(=O)N(CCNC(=O)CN(CCNC(=O)CN(CCNC(=O)CN(CCNC(=O)CN(CCNC(=O)[C@@H](N)CCCCN)C(=O)Cn2ccc(N)nc2=O)C(=O)Cn2cc(C)c(=O)[nH]c2=O)C(=O)Cn2ccc(N)nc2=O)C(=O)Cn2ccc(N)nc2=O)CC(=O)NCCN(CC(N)=O)C(=O)Cn2ccc(N)nc2=O)c(=O)[nH]c1=O | ×10⁶ /M | 0.4

compound Cc1cn(CC(=O)N(CCNC(=O)CN(CCNC(=O)CN(CCNC(=O)CN(CCNC(=O)CN(CCNC(=O)[C@@H](N)CCCCN)C(=O)Cn2ccc(N)nc2=O)C(=O)Cn2cc(C)c(=O)[nH]c2=O)C(=O)Cn2ccc(N)nc2=O)C(=O)Cn2cnc3ncnc(N)c32)CC(=O)NCCN(CC(N)=O)C(=O)Cn2ccc(N)nc2=O)c(=O)[nH]c1=O , Ka observed: 1.6

compound Cc1cn(CC(=O)N(CCNC(=O)CN(CCNC(=O)CN(CCNC(=O)CN(CCNC(=O)CN(CCNC(=O)[C@@H](N)CCCCN)C(=O)Cn2ccc(N)nc2=O)C(=O)Cn2cc(C)c(=O)[nH]c2=O)C(=O)Cn2ccc(N)nc2=O)C(=O)Cn2cnc3nc(N)[nH]c(=O)c32)CC(=O)NCCN(CC(N)=O)C(=O)Cn2ccc(N)nc2=O)c(=O)[nH]c1=O , Ka observed: 0.4

* * *

Test system: Hairpin ribozyme RNA
Test: Binding affinity to double helical RNA hairpin HRP3 in sodium acetate buffer at pH 5.5
Type: nucleic-acid assay
metric-name: Ka (×10⁶ /M)
Dear colleague, please return just the value in ×10⁶ /M, with no unit written.

The cases that follow already have their Ka on record.
molecule | assayed-target | value-measured
Cc1cn(CC(=O)N(CCNC(=O)CN(CCNC(=O)CN(CCNC(=O)CN(CCNC(=O)CN(CCNC(=O)[C@@H](N)CCCCN)C(=O)Cn2ccc(N)nc2=O)C(=O)Cn2cc(C)c(=O)[nH]c2=O)C(=O)Cn2ccc(N)nc2=O)C(=O)Cn2cc(C)c(=O)[nH]c2=O)CC(=O)NCCN(CC(N)=O)C(=O)Cn2ccc(N)nc2=O)c(=O)[nH]c1=O | Hairpin ribozyme RNA | 0.5
Cc1cn(CC(=O)N(CCNC(=O)CN(CCNC(=O)CN(CCNC(=O)CN(CCNC(=O)CN(CCNC(=O)[C@@H](N)CCCCN)C(=O)Cn2ccc(N)nc2=O)C(=O)Cn2cc(C)c(=O)[nH]c2=O)C(=O)Cn2ccc(N)nc2=O)C(=O)Cn2cnc3nc(N)[nH]c(=O)c32)CC(=O)NCCN(CC(N)=O)C(=O)Cn2ccc(N)nc2=O)c(=O)[nH]c1=O | Hairpin ribozyme RNA | 0.2
Cc1cn(CC(=O)N(CCNC(=O)CN(CCNC(=O)CN(CCNC(=O)CN(CCNC(=O)CN(CCNC(=O)[C@@H](N)CCCCN)C(=O)Cn2ccc(N)nc2=O)C(=O)Cn2cc(C)c(=O)[nH]c2=O)C(=O)Cn2ccc(N)nc2=O)C(=O)Cn2cnc3ncnc(N)c32)CC(=O)NCCN(CC(N)=O)C(=O)Cn2ccc(N)nc2=O)c(=O)[nH]c1=O | Hairpin ribozyme RNA | 0.7
Cc1cn(CC(=O)N(CCNC(=O)CN(CCNC(=O)CN(CCNC(=O)CN(CCNC(=O)[C@@H](N)CCCCN)C(=O)Cn2ccc(N)nc2=O)C(=O)Cn2cc(C)c(=O)[nH]c2=O)C(=O)Cn2ccc(N)nc2=O)CC(=O)NCCN(CC(=O)NCCN(CC(N)=O)C(=O)Cn2ccc(N)nc2=O)C(=O)Cn2cc(C)c(=O)[nH]c2=O)c(N)nc1=O | Hairpin ribozyme RNA | 1.01

Now consider the entry below.
Tested on Hairpin ribozyme RNA, the item Cc1cn(CC(=O)N(CCNC(=O)CN(CCNC(=O)CN(CCNC(=O)CN(CCNC(=O)CN(CCNC(=O)[C@@H](N)CCCCN)C(=O)Cn2ccc(N)nc2=O)C(=O)Cn2cc(C)c(=O)[nH]c2=O)C(=O)Cn2ccc(N)nc2=O)C(=O)Cn2ccc(N)nc2=O)CC(=O)NCCN(CC(N)=O)C(=O)Cn2ccc(N)nc2=O)c(=O)[nH]c1=O showed Ka equal to 0.5

* * *

Each item that follows carries a reported Ka.
System: Hairpin ribozyme RNA
Test: Binding affinity to double helical RNA hairpin HRP2 in sodium acetate buffer at pH 5.5
Assay type: nucleic-acid assay
Dear colleague, please return just the value in ×10⁶ /M, with no unit written.

molecule | display-unit | Ka
Cc1cn(CC(=O)N(CCNC(=O)CN(CCNC(=O)CN(CCNC(=O)CN(CCNC(=O)[C@@H](N)CCCCN)C(=O)Cn2ccc(N)nc2=O)C(=O)Cn2cc(C)c(=O)[nH]c2=O)C(=O)Cn2ccc(N)nc2=O)CC(=O)NCCN(CC(=O)NCCN(CC(N)=O)C(=O)Cn2ccc(N)nc2=O)C(=O)Cn2cc(C)c(=O)[nH]c2=O)c(N)nc1=O | ×10⁶ /M | 0.82

compound Cc1cn(CC(=O)N(CCNC(=O)CN(CCNC(=O)CN(CCNC(=O)CN(CCNC(=O)CN(CCNC(=O)[C@@H](N)CCCCN)C(=O)Cn2ccc(N)nc2=O)C(=O)Cn2cc(C)c(=O)[nH]c2=O)C(=O)Cn2ccc(N)nc2=O)C(=O)Cn2cc(C)c(=O)[nH]c2=O)CC(=O)NCCN(CC(N)=O)C(=O)Cn2ccc(N)nc2=O)c(=O)[nH]c1=O , Ka observed: 47

* * *

Tested on: Hairpin ribozyme RNA
Assay: Binding affinity to double helical RNA hairpin HRP1 in sodium acetate buffer at pH 5.5
Type: nucleic-acid assay
metric-name: log10 Ka (log10 of the value in ×10⁶ /M)
Scale type: logarithmic (base 10). Underlying Ka unit: ×10⁶ /M.

The cases that follow already have their log10 Ka on record.
molecule | assayed-target | value-measured
Cc1cn(CC(=O)N(CCNC(=O)CN(CCNC(=O)CN(CCNC(=O)CN(CCNC(=O)CN(CCNC(=O)[C@@H](N)CCCCN)C(=O)Cn2ccc(N)nc2=O)C(=O)Cn2cc(C)c(=O)[nH]c2=O)C(=O)Cn2ccc(N)nc2=O)C(=O)Cn2cnc3nc(N)[nH]c(=O)c32)CC(=O)NCCN(CC(N)=O)C(=O)Cn2ccc(N)nc2=O)c(=O)[nH]c1=O | Hairpin ribozyme RNA | 0.18
Cc1cn(CC(=O)N(CCNC(=O)CN(CCNC(=O)CN(CCNC(=O)CN(CCNC(=O)CN(CCNC(=O)[C@@H](N)CCCCN)C(=O)Cn2ccc(N)nc2=O)C(=O)Cn2cc(C)c(=O)[nH]c2=O)C(=O)Cn2ccc(N)nc2=O)C(=O)Cn2cc(C)c(=O)[nH]c2=O)CC(=O)NCCN(CC(N)=O)C(=O)Cn2ccc(N)nc2=O)c(=O)[nH]c1=O | Hairpin ribozyme RNA | 0.43
Cc1cn(CC(=O)N(CCNC(=O)CN(CCNC(=O)CN(CCNC(=O)CN(CCNC(=O)CN(CCNC(=O)[C@@H](N)CCCCN)C(=O)Cn2ccc(N)nc2=O)C(=O)Cn2cc(C)c(=O)[nH]c2=O)C(=O)Cn2ccc(N)nc2=O)C(=O)Cn2ccc(N)nc2=O)CC(=O)NCCN(CC(N)=O)C(=O)Cn2ccc(N)nc2=O)c(=O)[nH]c1=O | Hairpin ribozyme RNA | 1.92

molecule Cc1cn(CC(=O)N(CCNC(=O)CN(CCNC(=O)CN(CCNC(=O)CN(CCNC(=O)CN(CCNC(=O)[C@@H](N)CCCCN)C(=O)Cn2ccc(N)nc2=O)C(=O)Cn2cc(C)c(=O)[nH]c2=O)C(=O)Cn2ccc(N)nc2=O)C(=O)Cn2cnc3ncnc(N)c32)CC(=O)NCCN(CC(N)=O)C(=O)Cn2ccc(N)nc2=O)c(=O)[nH]c1=O , log10 Ka observed: 0.78

molecule Cc1cn(CC(=O)N(CCNC(=O)CN(CCNC(=O)CN(CCNC(=O)CN(CCNC(=O)[C@@H](N)CCCCN)C(=O)Cn2ccc(N)nc2=O)C(=O)Cn2cc(C)c(=O)[nH]c2=O)C(=O)Cn2ccc(N)nc2=O)CC(=O)NCCN(CC(=O)NCCN(CC(N)=O)C(=O)Cn2ccc(N)nc2=O)C(=O)Cn2cc(C)c(=O)[nH]c2=O)c(N)nc1=O , log10 Ka observed: -0.29

* * *

Each item that follows carries a reported log10 of Ka.
System: Hairpin ribozyme RNA
Test: Binding affinity to double helical RNA hairpin HRP4 in sodium acetate buffer at pH 5.5
Assay type: nucleic-acid assay
Scale type: logarithmic (base 10). Underlying Ka unit: ×10⁶ /M.

The cases that follow already have their log10 of Ka on record.
molecule | log10 of Ka
Cc1cn(CC(=O)N(CCNC(=O)CN(CCNC(=O)CN(CCNC(=O)CN(CCNC(=O)[C@@H](N)CCCCN)C(=O)Cn2ccc(N)nc2=O)C(=O)Cn2cc(C)c(=O)[nH]c2=O)C(=O)Cn2ccc(N)nc2=O)CC(=O)NCCN(CC(=O)NCCN(CC(N)=O)C(=O)Cn2ccc(N)nc2=O)C(=O)Cn2cc(C)c(=O)[nH]c2=O)c(N)nc1=O | -0.11
Cc1cn(CC(=O)N(CCNC(=O)CN(CCNC(=O)CN(CCNC(=O)CN(CCNC(=O)CN(CCNC(=O)[C@@H](N)CCCCN)C(=O)Cn2ccc(N)nc2=O)C(=O)Cn2cc(C)c(=O)[nH]c2=O)C(=O)Cn2ccc(N)nc2=O)C(=O)Cn2cnc3nc(N)[nH]c(=O)c32)CC(=O)NCCN(CC(N)=O)C(=O)Cn2ccc(N)nc2=O)c(=O)[nH]c1=O | -1.05
Cc1cn(CC(=O)N(CCNC(=O)CN(CCNC(=O)CN(CCNC(=O)CN(CCNC(=O)CN(CCNC(=O)[C@@H](N)CCCCN)C(=O)Cn2ccc(N)nc2=O)C(=O)Cn2cc(C)c(=O)[nH]c2=O)C(=O)Cn2ccc(N)nc2=O)C(=O)Cn2cc(C)c(=O)[nH]c2=O)CC(=O)NCCN(CC(N)=O)C(=O)Cn2ccc(N)nc2=O)c(=O)[nH]c1=O | -1.70
Cc1cn(CC(=O)N(CCNC(=O)CN(CCNC(=O)CN(CCNC(=O)CN(CCNC(=O)CN(CCNC(=O)[C@@H](N)CCCCN)C(=O)Cn2ccc(N)nc2=O)C(=O)Cn2cc(C)c(=O)[nH]c2=O)C(=O)Cn2ccc(N)nc2=O)C(=O)Cn2ccc(N)nc2=O)CC(=O)NCCN(CC(N)=O)C(=O)Cn2ccc(N)nc2=O)c(=O)[nH]c1=O | -0.70

Now consider the entry below.
Tested on Hairpin ribozyme RNA, the item Cc1cn(CC(=O)N(CCNC(=O)CN(CCNC(=O)CN(CCNC(=O)CN(CCNC(=O)CN(CCNC(=O)[C@@H](N)CCCCN)C(=O)Cn2ccc(N)nc2=O)C(=O)Cn2cc(C)c(=O)[nH]c2=O)C(=O)Cn2ccc(N)nc2=O)C(=O)Cn2cnc3ncnc(N)c32)CC(=O)NCCN(CC(N)=O)C(=O)Cn2ccc(N)nc2=O)c(=O)[nH]c1=O showed log10 of Ka equal to -1.30
